# experiment.description: Saturation solubility of OA in different oils and surfactants
# Assay type: physicochemical
# condition.summary: organic solvent or mixture, thermodynamic from solid; in PEG 400, 24 h at 25 °C
property.label: solubility at 24 h (µg/mL)
Just the number in µg/mL, nothing appended.

Query: Identify the reported solubility at 24 h for the following entry. CC1(C)CC[C@]2(C(=O)O)CC[C@]3(C)C(=CC[C@@H]4[C@@]5(C)CC[C@H](O)C(C)(C)[C@@H]5CC[C@]43C)[C@@H]2C1 [OA, Oleanolic acid]
Reply: 8490
